Each entry below lists one item and its recorded hFAAH KInact/K value.
Target: Human FAAH (Homo sapiens, UniProt O00519)
Construct: made in house
Sequence (O00519 32-579 limits assumed): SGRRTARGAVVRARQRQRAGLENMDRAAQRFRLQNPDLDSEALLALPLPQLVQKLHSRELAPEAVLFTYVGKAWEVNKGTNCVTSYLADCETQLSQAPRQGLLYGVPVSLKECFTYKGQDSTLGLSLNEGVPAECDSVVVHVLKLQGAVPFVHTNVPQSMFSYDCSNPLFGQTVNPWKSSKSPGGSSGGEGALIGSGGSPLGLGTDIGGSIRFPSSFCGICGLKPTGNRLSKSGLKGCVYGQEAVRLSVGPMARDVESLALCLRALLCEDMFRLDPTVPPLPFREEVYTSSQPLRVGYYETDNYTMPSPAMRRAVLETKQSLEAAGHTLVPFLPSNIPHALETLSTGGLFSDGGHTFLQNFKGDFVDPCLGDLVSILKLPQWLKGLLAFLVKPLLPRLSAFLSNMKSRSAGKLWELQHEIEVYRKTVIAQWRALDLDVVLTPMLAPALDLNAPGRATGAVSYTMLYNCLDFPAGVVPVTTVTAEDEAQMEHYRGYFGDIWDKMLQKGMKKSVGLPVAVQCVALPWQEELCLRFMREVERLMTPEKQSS
Assay: FAAH assay (glutamate dehydrogenase-coupled, oleamide substrate, absorbance at 340 nm)
Type: biochemical
Conditions: irreversible inhibition potency
Write the number in M⁻¹ s⁻¹ without appending the unit.

Worked examples, 3 molecules total:
-- ask Field request: hFAAH KInact/K | item: CC1CN(CCOc2cccc(C=C3CCN(C(=O)Nc4cccnn4)CC3)c2)CC(C)O1 (stereo not drawn)
-- reply 207

-- ask Field request: hFAAH KInact/K | item: O=C(Nc1cccnn1)N1CCC(=Cc2cccc(OCC3Cc4ccccc4O3)c2)CC1 (stereo not drawn)
-- reply 2505

-- ask Field request: hFAAH KInact/K | item: "O=C(Nc1cccnn1)N1CCC(=Cc2cccc(OCCc3ccccc3)c2)CC1"
-- reply 36139

***
-- ask Field request: hFAAH KInact/K | item: CCCC(CC)Oc1cccc(C=C2CCN(C(=O)Nc3cccnc3)CC2)c1 (stereo not drawn)
-- reply 551

====

Molecular target: Human FAAH (Homo sapiens, UniProt O00519)
Construct: made in house
Assay: FAAH assay (glutamate dehydrogenase-coupled, oleamide substrate, absorbance at 340 nm)
Format: biochemical
Details: irreversible inhibition potency
Each entry below lists one item and its recorded hFAAH KInact/K value.
Write the number in M⁻¹ s⁻¹ without appending the unit.

Worked examples, 6 molecules total:
-- ask Field request: hFAAH KInact/K | item: COC(COc1cccc(C=C2CCN(C(=O)Nc3cccnn3)CC2)c1)c1ccccc1 (stereo not drawn) [Example 56]
-- reply 149

-- ask Field request: hFAAH KInact/K | item: CC(Cc1ccccc1)Oc1cccc(C=C2CCN(C(=O)Nc3cccnn3)CC2)c1 (stereo not drawn) [Example 91]
-- reply 7398

-- ask Field request: hFAAH KInact/K | item: O=C(Nc1cccnn1)N1CCC(=Cc2cccc(OC3CCOCC3)c2)CC1 [Example 44]
-- reply 563

-- ask Field request: hFAAH KInact/K | item: CC(C)CCOc1cccc(C=C2CCN(C(=O)Nc3cccnn3)CC2)c1 [Example 62]
-- reply 15200

-- ask Field request: hFAAH KInact/K | item: CCC(CC)Oc1cccc(C=C2CCN(C(=O)Nc3cccnc3)CC2)c1 [Example 15]
-- reply 216

-- ask Field request: hFAAH KInact/K | item: O=C(Nc1cccnn1)N1CCC(=Cc2ccc3c(c2)OCO3)CC1 [Example 3]
-- reply 2870

Continue with the molecule presented below.
-- ask Field request: hFAAH KInact/K | item: O=C(Nc1cccnn1)N1CCC(=Cc2cccc(OCC3CCC(C(F)(F)F)CC3)c2)CC1 (stereo not drawn) [Example 103]
-- reply 1537

====

Target: Human FAAH (Homo sapiens)
Construct: made in house
Test: FAAH assay (glutamate dehydrogenase-coupled, oleamide substrate, absorbance at 340 nm)
Assay type: biochemical
Conditions: irreversible inhibition potency
Classify as follows. Reported hFAAH KInact/K greater than or equal to 1000 M⁻¹ s⁻¹: YES. Reported hFAAH KInact/K below: NO.

Below, 5 compounds whose answers are already recorded.
-- ask Say whether "COc1ccc(CCOc2cccc(C=C3CCN(C(=O)Nc4cccnn4)CC3)c2)cc1" shows hFAAH KInact/K of 1000 M⁻¹ s⁻¹ or more.
-- reply NO

-- ask Say whether "O=C(Nc1cccnc1)N1CCC(=Cc2cccc(OC3CC3)c2)CC1" shows hFAAH KInact/K of 1000 M⁻¹ s⁻¹ or more.
-- reply YES

-- ask Say whether CC1CCC(COc2cccc(C=C3CCN(C(=O)Nc4cccnn4)CC3)c2)CC1 (stereo not drawn) shows hFAAH KInact/K of 1000 M⁻¹ s⁻¹ or more.
-- reply YES

-- ask Say whether "O=C(Nc1cccnc1)N1CCC(=Cc2cccc(OC3CCCCC3)c2)CC1" shows hFAAH KInact/K of 1000 M⁻¹ s⁻¹ or more.
-- reply YES

-- ask Say whether "O=C(Nc1cccnn1)N1CCC(=Cc2cccc(OCc3ccc(C(F)(F)F)cn3)c2)CC1" shows hFAAH KInact/K of 1000 M⁻¹ s⁻¹ or more.
-- reply YES

***
-- ask Say whether "O=C(Nc1cccnn1)N1CCC(=Cc2cccc(OCCc3ccccn3)c2)CC1" shows hFAAH KInact/K of 1000 M⁻¹ s⁻¹ or more.
-- reply YES

-- ask Say whether "Cc1cc(COc2cccc(C=C3CCN(C(=O)Nc4cccnn4)CC3)c2)no1" shows hFAAH KInact/K of 1000 M⁻¹ s⁻¹ or more.
-- reply YES

-- ask Say whether "CC1(COc2cccc(C=C3CCN(C(=O)Nc4cccnn4)CC3)c2)CC1" shows hFAAH KInact/K of 1000 M⁻¹ s⁻¹ or more.
-- reply YES

-- ask Say whether "O=C(Nc1cccnn1)N1CCC(=Cc2cccc(OCc3nccs3)c2)CC1" shows hFAAH KInact/K of 1000 M⁻¹ s⁻¹ or more.
-- reply NO
